Values compiled from PubChem BioAssay AID1259422.

assay_notes: TEAD-YAP interaction inhibition, primary screen, TEAD-YAP interaction inhibitor project, luminescence, HEK-TIYL cells (AID 1259422);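 further: 0% = median of test compound wells and 100% = reference inhibitor wells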
assay_context: TEAD-Gal4/YAP UAS-luciferase luminescence, at 9.12 µM, stronger effect = higher value
Hit rate of the full screen: of about 640,000 compounds, about 9,300 (1.5%) were called active. The sample holds actives, similar compounds and a random draw of the others, so the mix is not that of the screen.
assay_metric: inhibition (%)

INSERT INTO results (molecule, observed_result) VALUES
  ('COc1ccc(-c2nc3ncnc(NCCc4ccc(O)cc4)c3[nH]2)cn1', 58.2),
  ('S=c1[nH]nc(N2CCOCC2)n1Cc1ccccc1', 2.61),
  ('COc1ccc(-c2nc3ncnc(NCc4ccccc4)c3[nH]2)cn1', 45),
  ('CN(C)c1cccc(C(=O)N2CCN(c3cccc(Cl)c3)CC2)c1', 32.4),
  ('CCOc1cc(C2C=C(c3cccc([N+](=O)[O-])c3)Nc3ncnn32)ccc1OC(F)F (centres undefined)', -5.43),
  ('Nc1ncnc(NCc2ccc(Cl)cc2)c1[N+](=O)[O-]', -0.74),
  ('COc1ccc2oc(=O)c(-c3csc(NC(=O)c4ccccc4)n3)cc2c1', 1.86),
  ('COc1cc(C2C(C#N)=C(N)Oc3n[nH]c(-c4cc(OC)c(OC)c(OC)c4)c32)ccc1OC(=O)N1CCOCC1 (centres undefined)', 12.5),
  ('CC1=C(C(=O)OCc2ccccc2)C(c2ccc3c(c2)OCO3)C2=C(CC(c3cccs3)CC2=O)N1 (centres undefined)', -4.32),
  ('OCCNc1ncnc2nc(-c3ccccc3)[nH]c12', 6.88),
  ('O=C(Nc1ccccc1Br)c1ccc(Cl)c([N+](=O)[O-])c1', -1.84),
  ('Cc1csc(NC(=O)c2ccc(I)cc2)n1', -17.9),
  ('CCCOc1c(Cl)cc(/C=C/C(=O)O)cc1OC', 4.32),
  ('CCCN(CCC)S(=O)(=O)c1ccc2[nH]c(=O)ccc2c1', -11.6),
  ('COc1ccc(C2C(C#N)=C(N)Oc3cc(C)n(Cc4ccco4)c(=O)c32)c(OC)c1 (centres undefined)', 6.86),
  ('COc1ccc(C(=O)/C=C/Nc2cccc(C(C)O)c2)cc1 (centres undefined)', -59.6),
  ('CC1=C(C(=O)OCc2ccccc2)C(c2cccc([N+](=O)[O-])c2)C2=C(CC(c3cccs3)CC2=O)N1 (centres undefined)', 58.1),
  ('Oc1c(C(c2cccnc2)N2CCOCC2)ccc2cccnc12 (centres undefined)', 29),
  ('COc1ccc(CCNc2ncnc3nc(-c4ccc(C(N)=O)cc4)[nH]c23)cc1', -4.01),
  ('COc1ccc(NC(=S)Nc2ccc(OC)cc2)cc1', -17.9),
  ('COc1ccc(Cl)cc1C1=N/C(=C\c2coc3ccccc3c2=O)C(=O)O1', 1.35),
  ('CC(Cc1ccco1)NC(=O)Nc1ccc2c(c1)OCO2 (centres undefined)', -9.4),
  ('O=C(CSc1nnc(NC(=O)C2CCC2)s1)NCc1cccs1', 5.18),
  ('COc1ccc(Cl)cc1C(=O)N1CCN(c2cccc(Cl)c2)CC1', 64),
  ('COc1ccccc1C(=O)Nc1nc(C)cs1', 80.1),
  ('CC1CCCC(NC(=O)C2N(C3CCCC(C)C3C)C(=O)C3C(C(=O)Nc4cccc(Cl)c4)C4C=CC32O4)C1C (centres undefined)', -7.64),
  ('COC(=O)NNc1ncnc(N)c1[N+](=O)[O-]', 2.66),
  ('CSc1ncc(Cl)c(C(=O)N2CCN(c3cccc(Cl)c3)CC2)n1', 39),
  ('COc1ccc(-c2nc3ncnc(Nc4ccccc4)c3[nH]2)cc1', 0.52),
  ('COc1ccc(C(=O)Nc2nc(C)cs2)c(OC)n1', 89.4),
  ('Cc1ccc(N(C(=O)c2snc(C(N)=O)c2N)C(C)C(=O)NC(C)(C)C)cc1C (centres undefined)', -0.01),
  ('CC(=O)c1c(C)[nH]c(C(=O)N2CCN(c3ccc(Cl)cc3)CC2)c1C', 12.3),
  ('Cc1cc(C(=O)N2CCN(c3cccc(Cl)c3)CC2)ccc1[N+](=O)[O-]', 3.11),
  ('Fc1cccc(-c2nnc3ccc4cc(C(F)(F)F)ccc4n23)c1', -12.5),
  ('Cc1cc2oc(=O)cc(C)c2cc1NC(=O)COc1ccccc1', 18.6),
  ('Cc1ccc(C(=O)Nc2nccs2)cc1C', -7.57),
  ('CC(C)C(=O)NCC1CCC2(CCN(Cc3nc(-c4ccccc4)cs3)CC2)O1 (centres undefined)', 96.7),
  ('O=C(Cc1cc(=O)[nH]c(=O)[nH]1)NCCCc1ccccc1', -5.86),
  ('CCc1nc2nonc2c2nc3ccccc3n12', -7.01);
